[
  {
    "TEST_SMILES": "Cn1ccnc1Sc1ccc(Nc2c(C#N)cnc3cc(C#CCCN4CCOCC4)sc23)cc1Cl",
    "melting point": "195 to 200 °C"
  },
  {
    "TEST_SMILES": "COc1cc(Nc2c(C#N)cnc3cc(-c4ccc(CN5CCN(c6ccccc6OC)CC5)cc4)sc23)c(Cl)cc1Cl",
    "melting point": "176 to 179 °C"
  },
  {
    "TEST_SMILES": "CN(C)CC#Cc1cc2ncc(C#N)c(Nc3ccc(Sc4nccn4C)c(Cl)c3)c2s1",
    "melting point": "204 to 207 °C"
  },
  {
    "TEST_SMILES": "N#Cc1cnc2cc(I)sc2c1Nc1ccc(Cl)cc1Cl",
    "melting point": "230 to 233 °C"
  },
  {
    "TEST_SMILES": "COc1cc(Nc2c(C#N)cnc3cc(-c4cnc(CN5CCN(C)CC5)n4C)sc23)c(Cl)cc1Cl",
    "melting point": "234 to 235 °C"
  },
  {
    "TEST_SMILES": "CN1CCN(Cc2ccc(-c3cc4ncc(C#N)c(Nc5ccc(Cl)cc5Cl)c4s3)cc2)CC1",
    "melting point": "245 to 247 °C"
  },
  {
    "TEST_SMILES": "N#Cc1cnc2cc(-c3ccc(CO)cc3)sc2c1Nc1ccc(Oc2ccccc2)cc1",
    "melting point": "225 to 228 °C"
  },
  {
    "TEST_SMILES": "COc1cc(Nc2c(C#N)cnc3cc(-c4ccsc4C=O)sc23)c(Cl)cc1Cl",
    "melting point": "128 to 130 °C"
  }
]
